- Test system: M14
- ASSAY PROTOCOL: NCI tumour cell line growth inhibition, 48 h
The source made the active and inactive calls. Rule as the data show it: active = GI50 up to about 1.1 µM and inactive = higher.
Use one of these outcomes when replying: y for active, n for inactive

INSERT INTO results (compound, study_target, label_class) VALUES
  ('O=C(O)c1c(-c2ccccc2)c(=O)[nH]c2ccccc12', 'M14', 'n');

For O=c1[nH]c(=O)n(C2CC(O)C(COP(=O)(O)OC3CC(n4cc(F)c(=O)[nH]c4=O)OC3COP(=O)(O)OC3CC(n4cc(F)c(=O)[nH]c4=O)OC3COP(=O)(O)OC3CC(n4cc(F)c(=O)[nH]c4=O)OC3COP(=O)(O)OC3CC(n4cc(F)c(=O)[nH]c4=O)OC3COP(=O)(O)OC3CC(n4cc(F)c(=O)[nH]c4=O)OC3COP(=O)(O)OC3CC(n4cc(F)c(=O)[nH]c4=O)OC3COP(=O)(O)OC3CC(n4cc(F)c(=O)[nH]c4=O)OC3COP(=O)(O)OC3CC(n4cc(F)c(=O)[nH]c4=O)OC3COP(=O)(O)OC3CC(n4cc(F)c(=O)[nH]c4=O)OC3CO)O2)cc1F (stereo not given) , which call appears in the assay record?
y

For CC(C)C(=O)N[C@@H](C)C(=O)N(Cc1ccc2ccccc2c1)N=O , which call appears in the assay record?
n

For CC(C)(C)[Si](C)(C)OCCC1CC2(S(=O)(=O)C3=CC=C=C=C3)ON1CC2S(=O)(=O)c1ccccc1 (stereo not given) , which call appears in the assay record?
n

For C/C(=N\NC(N)=S)c1ccc(C)cc1C , which call appears in the assay record?
n

* * *

- System: NCI/ADR-RES
- ASSAY PROTOCOL: NCI tumour cell line growth inhibition, 48 h
Active and inactive are the calls of the source. No stated cut-off is given here; in the data, active = GI50 up to about 1.1 µM and inactive = higher.
Use one of these outcomes when replying: active, inactive

These solved cases illustrate the format of a correct answer.
INSERT INTO measurements (compound, label_class) VALUES
  ('CN(CCN1CCCC1)C1CCc2cc(Cl)c(Cl)cc2C1 (configuration not stated)', 'inactive'),
  ('CCc1c(-c2ccc(OC)cc2)c(=O)oc2cc(O)ccc12', 'inactive'),
  ('NC(N)=NC(P(=O)(O)O)P(=O)(O)O', 'inactive'),
  ('CC(NC(=O)/C(=C/c1ccccc1)NC(=O)c1ccccc1)C(=O)O (configuration not stated)', 'inactive'),
  ('O=c1[nH]c(=O)n(C2CC(O)C(COP(=O)(O)OC3CC(n4cc(F)c(=O)[nH]c4=O)OC3COP(=O)(O)OC3CC(n4cc(F)c(=O)[nH]c4=O)OC3COP(=O)(O)OC3CC(n4cc(F)c(=O)[nH]c4=O)OC3COP(=O)(O)OC3CC(n4cc(F)c(=O)[nH]c4=O)OC3COP(=O)(O)OC3CC(n4cc(F)c(=O)[nH]c4=O)OC3COP(=O)(O)OC3CC(n4cc(F)c(=O)[nH]c4=O)OC3COP(=O)(O)OC3CC(n4cc(F)c(=O)[nH]c4=O)OC3COP(=O)(O)OC3CC(n4cc(F)c(=O)[nH]c4=O)OC3COP(=O)(O)OC3CC(n4cc(F)c(=O)[nH]c4=O)OC3CO)O2)cc1F (configuration not stated)', 'active'),
  ('Nc1ncnc2c1cnn2Cc1ccc(Cl)cc1', 'inactive');

Shift focus to the following entry.
For CCOC(=O)c1c(C)cc(=O)n2c1[nH]c1ccccc12 , which call appears in the assay record?
inactive
